assay: melting temperature; fluorescence melt of hairpins on a sequencing array, two-state fit, raised by 9.35 °C to match UV melts; conditions: sodium 0.088 M
Entries and their Tm values follow.
Just the number please, in °C, no unit attached.

Observe how each entry below is paired with its result.
| residues | unitString | measuredResult |
| --- | --- | --- |
| GCCACACCGAAAGGTGGC (((..(((....)))))) | °C | 55.6 |
| GCCACAGGAAACTACGGC (((..((....))..))) | °C | 39.5 |

What does the data say about its Tm? Entry: GGAAGACGAAAGTCATCC (((.(((....))).))) 48.7

I'd like to know its Tm. The sequence in question is GATCCGCCATCGGATC ((((((....)))))) 57.4

I'd like to know its Tm. The sequence in question is GAAGCTGGAAACGGTTTC (((.(.(....).).))) 26

// lookup Tm for GGCTACCGAAAGGTGGCC (((.(((....))).))) 68.8

Any idea what Tm was measured for GGCTGGGGAAACCCGGCC (((.(((....))).))) ? 66.6

Values were extracted from the array DNA melting data of Ke et al. (doi:10.1101/2024.01.08.574731).
